Kindly find below pKi information for Vasopressin V1b receptor (Homo sapiens, UniProt P47901) taken from the literature.
pKi: −log10 of the molar value.

Consider the reported pKi for these compounds:
[[record]]
compound = "COc1ccc(S(=O)(=O)n2c(=O)n(C(C(=O)N3CC[C@H](NC4CCN(C(C)(C)C)CC4)C3)c3ccccc3)c3cc(C#N)ccc32)cc1 (stereo partly drawn)"
test_readout = "pKi"
recorded_value = "> 7.00"

[[record]]
compound = "COc1ccc(S(=O)(=O)N2C(=O)C(c3ccc(CN4CCNCC4)cc3OC)(N3CCC[C@H]3c3ncco3)c3cc(C#N)ccc32)cc1 (stereo partly drawn)"
test_readout = "pKi"
recorded_value = "> 8.00"

[[record]]
compound = "CCOc1ccc(OC)cc1C1(N2CC3(CN(C4CCN(C)CC4)C3)C2)C(=O)N(S(=O)(=O)c2ccc(OC)cn2)c2ccc(C#N)cc21 (single isomer, unassigned; (+))"
test_readout = "pKi"
recorded_value = "> 9.00"

[[record]]
compound = "CCOC1CCN(C[C@H]2C[C@@H](c3ccc4nc(-c5cccc(Cl)c5)n(CC(=O)NC(C)C)c(=O)c4c3)C2)CC1"
test_readout = "pKi"
recorded_value = "7.00 to 8.00"

[[record]]
compound = "CCOc1ccc(C)cc1C1(N2CCN(c3ccnc(C)c3)CC2)C(=O)N(S(=O)(=O)c2ccc(OC)cn2)c2ccc(C#N)cc21 (racemic)"
test_readout = "pKi"
recorded_value = "> 8.00"


Query :: Return pKi measured with Vasopressin V1b receptor (Homo sapiens, UniProt P47901) given this compound: CCOc1ncccc1C1(OC(=O)N2CCN(C3CCN(C)CC3)CC2)C(=O)N(S(=O)(=O)c2ccccc2OC)c2cc(F)c(F)cc21 (stereo not drawn)
Result :: 8.00 to 9.00

Query :: Now the same for CCOc1ccccc1C1(N2CC3(CN(C4CCN(C)CC4)C3)C2)C(=O)N(S(=O)(=O)c2ccc(OC)cn2)c2ccc(C#N)cc21 (racemic)
Result :: 8.00 to 9.00

Query :: Now the same for CCOc1ncccc1C1(NC(=O)N2CCN(C3CCN(CC)CC3)CC2)C(=O)N(S(=O)(=O)c2ccc(OC)cc2)c2cc(F)c(C#N)cc21 (stereo not drawn)
Result :: 8.00 to 9.00
